biological target: MAGI2_4, Q86UL8; assay: holdup assay; design: key: below the threshold = too weak to quantify, mostly under pKd 3.1 to 4; details: plain residues with an end cap or a label only (N-terminal biotin on a linker: ado-ado)
Sequence (Q86UL8 772-865): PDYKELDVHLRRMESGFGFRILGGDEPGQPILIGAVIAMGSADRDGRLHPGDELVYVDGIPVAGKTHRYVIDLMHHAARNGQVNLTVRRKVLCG
Assay Metric: pKd

Some binders with known pKd results, for comparison:
- Binder: "EKPIDSETKM [SLC1A3, P43003]"
  Assay Metric: "pKd"
  Observed Value: "below the threshold"
- Binder: "LVEEEEPMNL [HDAC7, Q8WUI4]"
  Assay Metric: "pKd"
  Observed Value: "below the threshold"
- Binder: "GVHSNDHSVV [LPAR1, Q92633]"
  Assay Metric: "pKd"
  Observed Value: "below the threshold"
- Binder: "AHGSTRDQSI [KCNB1, Q14721]"
  Assay Metric: "pKd"
  Observed Value: 3.9
- Binder: "ELKAEDEVQI [DCHS2, Q6V1P9]"
  Assay Metric: "pKd"
  Observed Value: "below the threshold"

Req: If you can, please state the reported pKd value of PSVYSRSQYV [CLDN8, P56748] .
Resp: 3.62

Req: If you can, please state the reported pKd value of PAALPESTHM [SLC9A3, P48764] .
Resp: below the threshold

Req: If you can, please state the reported pKd value of SQPLLVHDDV [KIT, P10721] .
Resp: below the threshold

Req: If you can, please state the reported pKd value of ATKDKKITTV [EXOC4, Q96A65] .
Resp: 4.51
